test system: PLK4; details: concentration: 1 μM,replicates: in singlicate; n = 1;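 also: KINOMEscan kinase panel screen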
measurementLabel: %Inh (%)
Give the value in % but do not write % after it.

A selection of reference data follows.
O=C(Nc1ccc(Oc2ccc3nc(NC(=O)C4CC4)cn3n2)c(F)c1)c1cccn(-c2ccccc2)c1=O :: 0
COC(=O)c1cccc(NC(=O)NC2CCN(c3ccnc(Nc4cc(OC)c(OC)c(OC)c4)n3)C2)c1 (stereo not drawn) [GSK1379767] :: 38
CCn1c(-c2nonc2N)nc2cncc(Br)c21 [SB-738004] :: 76
Nc1nccc(-c2ccc3c(N)n[nH]c3c2)n1 [GSK1034945] :: 0
CCNCC(Cc1ccccc1)NC(=O)c1cc(Br)c(-c2ccnc3[nH]ccc23)s1.Cl.Cl (stereo not drawn) [GSK1383280] :: 92.3
O=C1NCCc2[nH]c(-c3ccncc3)cc21 :: 30

// assay PLK4, entry Cc1ccn2nc(-c3ccc(F)cc3)c(-c3ccncc3)c2c1.Cl [GW457859] , %Inh value = 2

###

tested on: AKT2; settings: concentration: 1 μM,replicates: in singlicate; n = 1
measurementLabel: %Inh (%)
Give the value in % but do not write % after it.

COc1cc(Nc2nccc(N3CCC(NC(=O)c4cccc(C#N)c4)C3)n2)cc(OC)c1OC (centres unmarked) :: 0
CCCC(=O)Nc1n[nH]c2ncccc12 :: 0
CCNCC(Cc1ccccc1)NC(=O)c1cc(Br)c(-c2ccnc3[nH]ccc23)s1.Cl.Cl (centres unmarked) :: 81
c1ccc(Oc2ccc(Nc3ccnc4ccc(-c5ccccn5)cc34)cc2)cc1 :: 17
CS(=O)(=O)c1cccc(CNc2nc(Nc3ccc4c(c3)[C@@H]3C[C@@H]4CNC3=O)ncc2C(F)(F)F)c1 :: 0
CN(c1ccc2c(c1)nc(NCc1ccc(F)cc1)n2C)c1ccnc(Nc2ccc(CS(C)(=O)=O)cc2)n1.Cl :: 0

Sure, the documented %Inh for `CC(=O)Nc1ccc(-c2cc3ncnc(SCC(=O)O)c3s2)cc1` is 28

Sure, the documented %Inh for `Nc1nccc(-c2ccc3c(N)n[nH]c3c2)n1` is 10

Sure, the documented %Inh for `O=C(Nc1ccc(Oc2ccc3nc(NC(=O)C4CC4)cn3n2)c(F)c1)c1cccn(-c2ccccc2)c1=O` is 13

Sure, the documented %Inh for `Cn1ccc2ncnc(Oc3ccc(NC(=O)Nc4cccc(C(F)(F)F)c4)c(F)c3)c21` is 0

Sure, the documented %Inh for COc1ccc(Nc2nccc(N3CCC(NC(=O)c4cccc(C#N)c4)C3)n2)cc1 (centres unmarked) is 0

Sure, the documented %Inh for `CS(=O)(=O)Nc1ccc(-c2ccnc3[nH]ccc23)cc1` is 21

Sure, the documented %Inh for `O=C(Nc1cccc(Oc2ccc3nccn3n2)c1)Nc1cccc(C(F)(F)F)c1` is 0

Sure, the documented %Inh for `C[C@@H]1CNc2c(sc3ccc4nc(-c5ccncc5)ccc4c23)C(=O)N1` is 18

###

Listing of entries alongside the reported %Inh.
test system: STK35; settings: concentration: 1 μM,replicates: in singlicate; n = 1
Give the value in % but do not write % after it.

CC(=O)Nc1nc2cnc(Nc3cc(NC(=O)c4cccc(CC(C)(C)C#N)c4)ccc3C)nc2s1 :: 0
CSc1nccc(-c2c(-c3ccc(F)cc3)ncn2CCCN2CCOCC2)n1.Cl [SB-217146] :: 0
Cn1ccc2ncnc(Oc3ccc(NC(=O)Nc4cccc(C(F)(F)F)c4)c(F)c3)c21 :: 4
O=C(Nc1cccc(Oc2ccc3nccn3n2)c1)Nc1cccc(C(F)(F)F)c1 :: 0
Cc1ccn2nc(-c3ccc(F)cc3)c(-c3ccncc3)c2c1.Cl [GW457859] :: 0

Sure, the documented %Inh for Cl.Nc1n[nH]c2cc(-c3ccccn3)ccc12 [GSK2189892] is 0

Sure, the documented %Inh for CN1CCN(CCNc2nc3cc(Oc4ccc(NC(=O)Nc5cc(C(F)(F)F)ccc5F)cc4)ccc3[nH]2)CC1.Cl.Cl [GW768504] is 0

Sure, the documented %Inh for `NC(=O)c1ccc(-c2cc3ncnc(SCC(=O)O)c3s2)cc1` is 0
